# assay_explanation: NCI Yeast Anticancer Drug Screen. Data for the bub3 strain (AID 167)
# applied_conditions: S. cerevisiae bub3 mutant strain, at 50.0 µM
This is part of a sample that, as a whole, favours compounds with a hit. Of some 79,000 tested, about 15% had one in any assay. Active and inactive are the calls of the source. Rule as the data show it: active = growth inhibition above about 70%; inactive = the rest.
Possible outcomes: active, inactive

CC(C(=O)O)c1cn(Cc2ccccc2)c2ccccc12 (stereo not given); inactive
COc1cc(N=Nc2cccc(S(N)(=O)=O)c2)c2ccccc2c1N; active
CCCCCC/C=C\CCCCCCCCCC1=C(CN2CCN(C)CC2)C(=O)C=C(OC)C1=O; active
CCOC(=O)c1c(-c2ccccc2)csc1NC(=O)CBr; active
Cc1ccc(NS(=O)(=O)c2ccc(C)cc2)cc1; inactive
CCCN1C(=O)c2ccccc2C1=O; inactive
O=C(NCCCCCCNC(=O)n1cc(F)c(=O)[nH]c1=O)NCCCOCCOCCOCCOCCOCCOCCOCCOCCOCCOCCOCCOCCOCCOCCOCCOCCOCCOCCOCCOCCOCCCNC(=O)C(O)C(O)C(O)C(O)CO (stereo not given); inactive
S=C(N/N=C/c1ccccn1)N1CCCCCC1; active
CC(C)c1ccc2nc3ccc(C(=O)NCCN4CCN(c5ccccc5)CC4)cn3c(=O)c2c1; inactive
CCc1ccc(-c2ccccc2)cc1; inactive

---

Documented growth inhibition across a set of compounds
# assay_explanation: NCI Yeast Anticancer Drug Screen. Data for the bub3 strain (AID 167)
# applied_conditions: S. cerevisiae bub3 mutant strain, at 50.0 µM (retest, dose inferred, filed as 5.0), stronger effect = higher value
Compounds without any hit were thinned out: in the full panel of roughly 79,000, 15% have a hit.
assay_endpoint: growth inhibition (%)

CC1CCN(CCC(=O)c2cccc(O)c2)CC1; 39
CC(=O)/C(=C\c1ccccc1Cl)C(=O)CCN(C)C; 97
O=[N+]([O-])c1cc2cccnc2c2ncccc12; -86
CCCCCCCCCCCCCC(=O)OCC(O)CO (configuration not stated); 22
COc1ccc(Cc2ccc(N)cc2)cc1; 76
COc1cc(C(=O)NC(CCC(=O)O)C(=O)O)ccc1N(C)Cc1cnc2nc(N)nc(N)c2n1 (configuration not stated); -6
CCN(CC)CCOC(=O)c1ccc(N=Nc2cc(Cl)c(C)cc2O)cc1; 99

---

# assay_explanation: NCI Yeast Anticancer Drug Screen. Data for the bub3 strain (AID 167)
# applied_conditions: S. cerevisiae bub3 mutant strain, at 50.0 µM
Compounds without any hit were thinned out: in the full panel of roughly 79,000, 15% have a hit. Calls of active or inactive are those of the source. No stated cut-off is given here; in the data, active means growth inhibition above about 70%; inactive means the rest.
Possible outcomes: true (1) (active), false (0) (inactive)

CSC(SC)(C(=O)O)c1cc(-c2c(Cl)cccc2Cl)no1; false (0)
Cc1cc(NS(=O)(=O)c2ccc(Nc3c4ccccc4nc4c(C(=O)NC(CO)(CO)CO)cccc34)cc2)no1; false (0)
CCC[CH2][Sn]([CH2]CCC)([S]/C(C#N)=N/N=C/c1ccc(N(C)C)cc1)[S]/C(C#N)=N/N=C/c1ccc(N(C)C)cc1; true (1)
O=C(Nc1ccccc1)OCCc1ccc(Br)cc1; false (0)
O=C1C=CC(=O)N1C1CCCCC1; true (1)
Oc1ccccc1C(c1ccccc1O)C(Cl)(Cl)Cl; true (1)
N#Cc1c(SCc2ccc(Cl)cc2)nsc1Nc1ccc(Cl)cc1; false (0)
CC1=C(C(=O)Nc2cccc(Cl)c2)C(c2ccccc2O)C(C(=O)Nc2cccc(Cl)c2)=C(C)N1; false (0)
COC(=O)C12Oc3ccc(-c4ccc5c(c4O)C(O)=C4C(=O)CC(C)C(O)C4(C(=O)OC)O5)c(O)c3C(O)=C1C(=O)CC(C)C2O (centres undefined); true (1)
